# experimental details: pH and heat stability of antibiotic PS-5 in aqueous solution
# Type: physicochemical
# conditions used: phosphate buffer, pH 3, pH 3.0, 60° C. for 30 minutes; yellowish brown powder of Example 5; percent of control
measure: remaining at 0.5 h (%)

{"molecule": "CCC1C(=O)N2C(C(=O)O)=C(SCCNC(C)=O)CC12 (single isomer, unassigned) [Antibiotic PS-5]", "value measured": 0}

* * *

# experimental details: pH and heat stability of antibiotic PS-5 in aqueous solution
# Format: physicochemical
# conditions used: phosphate buffer, pH 7, pH 7.0, 60° C. for 30 minutes; yellowish brown powder of Example 5

{"compound": "CCC1C(=O)N2C(C(=O)O)=C(SCCNC(C)=O)CC12 (single isomer, unassigned) [Antibiotic PS-5]", "remaining at 0.5 h, %": 76.5}

* * *

# experimental details: pH and heat stability of trityl ester of antibiotic PS-5
# Type: physicochemical
# conditions used: phosphate buffer; pH 3.0, 60° C. for 30 minutes; percent of control; read-out: Residual activity

{"compound": "CCC1C(=O)N2C(C(=O)OC(c3ccccc3)(c3ccccc3)c3ccccc3)=C(SCCNC(C)=O)CC12 (single isomer, unassigned)", "unit abbrev": "%", "remaining at 0.5 h": 0}

* * *

# experimental details: pH and heat stability of trityl ester of antibiotic PS-5
# Type: physicochemical
# conditions used: phosphate buffer; pH 8.0, 60° C. for 30 minutes; read-out: Residual activity
# Method: The trityl ester of antibiotic PS-5 was dissolved in one volume of methanol and then diluted with 9 volumes of distilled water as soon as possible to provide a solution of 125 CCU/ml. […] To one milliliter each of the phosphate buffers, one milliliter each of the said solution of the trityl ester of antibiotic PS-5 was added and, if necessary, the pH value of the mixture was readjusted with phosphoric acid or sodium hydroxyde to the desired pH value. […]
measure: remaining at 0.5 h (%)

{"compound": "CCC1C(=O)N2C(C(=O)OC(c3ccccc3)(c3ccccc3)c3ccccc3)=C(SCCNC(C)=O)CC12 (single isomer, unassigned) [Trityl PS-5]", "value measured": 100}

* * *

# experimental details: pH and heat stability of trityl ester of antibiotic PS-5
# Assay type: physicochemical
# conditions used: phosphate buffer; pH 4.0, 60° C. for 30 minutes; read-out: Residual activity
measure: remaining at 0.5 h (%)

{"compound": "CCC1C(=O)N2C(C(=O)OC(c3ccccc3)(c3ccccc3)c3ccccc3)=C(SCCNC(C)=O)CC12 (single isomer, unassigned) [Trityl PS-5]", "unit abbrev": "%", "value measured": 0}

* * *

# experimental details: pH and heat stability of antibiotic PS-5 in aqueous solution
# Format: physicochemical
# conditions used: water, pH 9, at least 15 min of heating at 60° C., aqueous solution, around neutral to weakly alkaline pH below pH 9; usual value; read-out: Antibiotic activity remaining, usually

{"compound": "CCC1C(=O)N2C(C(=O)O)=C(SCCNC(C)=O)CC12 (single isomer, unassigned) [Antibiotic PS-5]", "remaining at 0.25 h": "> 70%"}

* * *

# experimental details: pH and heat stability of antibiotic PS-5 in aqueous solution
# Format: physicochemical
# conditions used: phosphate buffer, pH 9, pH 9.0, 60° C. for 30 minutes; yellowish brown powder of Example 5

{"molecule": "CCC1C(=O)N2C(C(=O)O)=C(SCCNC(C)=O)CC12 (single isomer, unassigned) [Antibiotic PS-5]", "remaining at 0.5 h [%]": 82}

* * *

# experimental details: pH and heat stability of trityl ester of antibiotic PS-5
# Assay type: physicochemical
# conditions used: phosphate buffer; pH 5.0, 60° C. for 30 minutes; read-out: Residual activity
measure: remaining at 0.5 h

{"molecule": "CCC1C(=O)N2C(C(=O)OC(c3ccccc3)(c3ccccc3)c3ccccc3)=C(SCCNC(C)=O)CC12 (single isomer, unassigned) [Trityl PS-5]", "value measured": "6.5%"}

* * *

# experimental details: pH and heat stability of trityl ester of antibiotic PS-5
# Assay type: physicochemical
# conditions used: phosphate buffer; pH 9.0, 60° C. for 30 minutes; read-out: Residual activity

{"compound": "CCC1C(=O)N2C(C(=O)OC(c3ccccc3)(c3ccccc3)c3ccccc3)=C(SCCNC(C)=O)CC12 (single isomer, unassigned) [Trityl PS-5]", "remaining at 0.5 h": "100%"}

* * *

# experimental details: pH and heat stability of antibiotic PS-5 in aqueous solution
# Format: physicochemical
# conditions used: phosphate buffer, pH 5, pH 5.0, 60° C. for 30 minutes; yellowish brown powder of Example 5

{"molecule": "CCC1C(=O)N2C(C(=O)O)=C(SCCNC(C)=O)CC12 (single isomer, unassigned) [Antibiotic PS-5]", "remaining at 0.5 h [%]": 9}

* * *

# system under test: Beta-lactamase from Citrobacter freundii E-9 (Citrobacter freundii)
# Sequence (P05193 21-381): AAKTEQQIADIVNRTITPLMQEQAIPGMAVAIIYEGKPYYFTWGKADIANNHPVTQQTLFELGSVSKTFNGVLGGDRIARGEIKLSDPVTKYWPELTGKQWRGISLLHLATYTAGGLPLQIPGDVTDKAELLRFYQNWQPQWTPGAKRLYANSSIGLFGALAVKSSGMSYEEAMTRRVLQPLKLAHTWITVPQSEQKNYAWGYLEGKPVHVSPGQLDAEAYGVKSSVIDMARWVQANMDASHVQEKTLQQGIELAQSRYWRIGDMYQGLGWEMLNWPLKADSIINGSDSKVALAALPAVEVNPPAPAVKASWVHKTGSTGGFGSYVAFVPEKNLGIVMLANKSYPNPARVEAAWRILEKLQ
# experimental details: Beta-lactamase inhibition, hydrolysis of cephaloridine (I50 CER)
# conditions used: Citrobacter freundii E-9 beta-lactamase; cephaloridine substrate; 15 minutes preincubation at 30° C.

{"compound": "CCC1C(=O)N2C(C(=O)OC(c3ccccc3)(c3ccccc3)c3ccccc3)=C(SCCNC(C)=O)CC12 (single isomer, unassigned)", "unit abbrev": "nM", "IC50": 1480}

* * *

# experimental details: pH and heat stability of trityl ester of antibiotic PS-5
# Format: physicochemical
# conditions used: phosphate buffer; pH 6.0, 60° C. for 30 minutes; read-out: Residual activity
measure: remaining at 0.5 h (%)

{"compound": "CCC1C(=O)N2C(C(=O)OC(c3ccccc3)(c3ccccc3)c3ccccc3)=C(SCCNC(C)=O)CC12 (single isomer, unassigned)", "value measured": 79}

* * *

# experimental details: pH and heat stability of antibiotic PS-5 in aqueous solution
# Format: physicochemical
# conditions used: phosphate buffer, pH 8, pH 8.0, 60° C. for 30 minutes; yellowish brown powder of Example 5
measure: remaining at 0.5 h (%)

{"compound": "CCC1C(=O)N2C(C(=O)O)=C(SCCNC(C)=O)CC12 (single isomer, unassigned) [Antibiotic PS-5]", "measure": "remaining at 0.5 h", "value measured": 88.5}

* * *

# experimental details: pH and heat stability of antibiotic PS-5 in aqueous solution
# Format: physicochemical
# conditions used: phosphate buffer, pH 4, pH 4.0, 60° C. for 30 minutes; yellowish brown powder of Example 5
measure: remaining at 0.5 h (%)

{"molecule": "CCC1C(=O)N2C(C(=O)O)=C(SCCNC(C)=O)CC12 (single isomer, unassigned) [Antibiotic PS-5]", "unit abbrev": "%", "value measured": 0}
